- assay_overview: folding stability dG unfold (combined trypsin and chymotrypsin); higher = more stable
Categories are assigned from the measured folding stability dG unfold using these intervals: lower band: < 1 kcal/mol; central band: ≥ 1 kcal/mol and < 2 kcal/mol; upper band: ≥ 2 kcal/mol

Solved cases below.
| sequence_entry | group |
| --- | --- |
| SAGLTAKITSVTEENGTLTVTVEVTAPDGSTFTFTATFRIEPAPAPPVKVTVETDADGNVTVTVETLDSAGG [r19_172_TrROS_Hall] | upper band |
| SAGGSAGGSAGGPPPEKAAAYLVKYRNPDGGPLGTRPVELPPDRPEVEHDPSFVSVEVASAGGSAGGSAGGS [r10_675_JUSTAS] | lower band |
| SMITLELTDPATGAKYTLTIDPSTGKAKVTRTPPTGPPVSGTGTIEGNTLTITLYEPSGKPLATLTLPLPSA [r9_665_JUSTAS] | upper band |

Categorize the following entry: SAGGSDLITTEETFVGPGGEITLRTTTVDPKTGKTTTTTTTIPVIKGPPSDPAKIEAELKKRGIPLSAGGSA [r2_304_JUSTAS]
lower band

Just checking, what class would you give SAGSTTRVVELPGNKRVEVEVSTVGDSLTFTITLRDEEGNPVKTLPVAVPDPSLPVEEAIAAAVAAFLASAG [r5_630_JUSTAS] here?
upper band

Record SAGGSAGGIEVKIEGEIKPVKVTVSFSTANGDGNPKEYPVEKTYLVVDIKIEVNSPEAAKKINISAGGSAGG [r6_149_TrMRF] — which class?
upper band

# bin label for SAGGSAGGSMIVKLEDGTYLVRIVNKDTKEVIEIEVSAEEAEELAKELNIEKVEIVKAGEPLESAGGSAGGS [r12_294_TrROS_Hall]
upper band

Hi, small favor: classify SAGGSEILKKLFPNVKKIEIEVEEVEVKYSEEEKKANPNKKVKVEVKVKVKIKIKIELEFDKNGKLSAGGSA [r2_404_TrROS_Hall] by its folding stability dG unfold when you get a moment.
upper band

Hey, which category is SAGGSAGGSYTVETSPVPPGGLLKTYTSPDGVVTTTLYSPDGTVGETTTTPVPPVVPPDPAAAASAGGSAGG [r6_239_JUSTAS] in, do you know?
lower band

====

- assay_overview: folding stability dG unfold from trypsin proteolysis; higher = more stable
Listed here: items and their measured folding stability dG unfold.
Unit kJ/mol implied. Number only.

| sequence_entry | uom | measured_value |
| --- | --- | --- |
| SAGGSLKIKIRNPDGMPFKIDVVRYPNHIRIKFKFGNKPVAFMIDPESDTINFRIPGWPFQIEIEPSAGGSA [r2_194_TrROS] | kJ/mol | 12.4 |

Complete the entry with folding stability dG unfold for SAGGSAGGSAGGKVEIYENPSTPYLVVVVYNPETGEKTVVLFKPDNPELAEKVAKELASSAGGSAGGSAGGS [r10_1117_TrMRF]
2.97

Could you please provide reported folding stability dG unfold for SAGGSAGGSMIVKLEDGTYLVRIVNKDTKEVIEIEVSAEEAEELAKELNIEKVEIVKAGEPLESAGGSAGGS [r12_294_TrROS_Hall] ? Thanks!
7.46

====

- assay_overview: folding stability dG unfold from chymotrypsin proteolysis; higher = more stable
Label t when folding stability dG unfold >= 1 kcal/mol; otherwise f.

Reference set (4 entries):
| sequence_entry | group |
| --- | --- |
| SAGGSAGGSAGNLKVVDISIWRTDDMRYIMFKLEGDGLTIMIWVPPKEPGKIQIMIFPLDSAGGSAGGSAGG [r11_1046_TrROS] | t |
| SEEIIKALEEAGYEVESIEYDEETKTVTITIYRKNKETGKIEKKTITIEVEPGMTEEELLALARELLEKESA [r9_184_TrROS_Hall] | t |
| SAGGSADPDDKEQKIKVEIETYRLEDNGMEVTRIELEGHGMPIYIARFPDGRMFIFTANGELEQIPSAGGSA [r15_617_TrROS] | t |
| SAGGSSMEVEIDTSKSTTTYTHPSGEKVATRSLVLTPPSPGDPLRFLNVEFEKLPDGSVVVKKIVGSAGGSA [r2_362_JUSTAS] | f |

folding stability dG unfold >= 1 kcal/mol for SAGGSAGGSAGVKSVGPIIYPNGEVFGDVKAEEETLPNGKKKLKIYATFSDGSKYEFTLDSAGGSAGGSAGG [r11_810_TrMRF] ?
f

Check this sequence for folding stability dG unfold at or above 1 kcal/mol: SAGGSAGGGMKFVKVTLEYAGGEVREYLFTTSSSDSTVEVVIEDLPPEKGARITEITEYPASLLSAGGSAGG [r6_530_JUSTAS]
t

Reported folding stability dG unfold reaches at least 1 kcal/mol for SAGGFIRIETPNGKKISPEVREEAEEAIRDGDWDDAVKKISDWLRERFGHPMPIKIEVMMPPPKPPKSAGGS [r8_48_TrROS] ?
t
